- Test system: rodent lifetime carcinogenesis bioassay, tumor incidence TD50
- procedure_text: carcinogenic potency in animals, long-term in vivo studies, CPDB compilation (AID 1745844)
- measurement_conditions: rat; strain ACI; both sexes; in feed; site: intestine; lesion: several types; types named in the paper; dosed 94 weeks; study length 94 weeks
reported_property: TD50

IN: Name the reported TD50 value associated with the molecule CCOC(=O)c1ccc(N)cc1
OUT: 191 mg/kg/day

###

- Test system: rodent lifetime carcinogenesis bioassay, tumor incidence TD50
- procedure_text: carcinogenic potency in animals, long-term in vivo studies, CPDB compilation (AID 1745844)
- measurement_conditions: rat; strain Fischer 344; females; in feed; site: thyroid gland; lesion: follicular-cell adenoma + follicular-cell carcinoma; dosed 105 weeks; study length 105 weeks
reported_property: TD50

IN: Name the reported TD50 value associated with the compound Cc1ncc[nH]1
OUT: 882 mg/kg/day

Cited source for all entries: PubChem BioAssay AID1745844
